system: Candida tropicalis; assay: Antifungal activity against Candida tropicalis GC 3081; assay type: functional

compound | u | MIC
COC(=O)/C(C)=C/C=C/C=C/CC/C=C/C(C)C(O)C(C)C(O)/C=C/C=C/C=C/C=C/C=C/C=C/CC(OS(=O)(=O)O)C(C)C(=O)CC(O)CC(O)/C=C/CC(O)CC(O)CC(O)/C=C/CC(O)CC(O)/C=C/CC(O)CC(O)CCCN (stereo not given) | mg/L | 32
C\C(=C/C=C/C=C/CC/C=C/C(C)C(O)C(C)C(O)/C=C/C=C/C=C/C=C/C=C/C=C/CC(O)C(C)C(=O)CC(O)CC(O)/C=C/CC(O)CC(O)CC(O)/C=C/CC(O)CC(O)/C=C/CC(O)CC(O)CCCN)C(=O)O (stereo not given) [MEDIOMYCIN B] | mg/L | 2
C\C(=C/C=C/C=C/CC/C=C/C(C)C(O)C(C)C(O)/C=C/C=C/C=C/C=C/C=C/C=C/CC(OS(=O)(=O)O)C(C)C(=O)CC(O)CC(O)/C=C/CC(O)CC(O)CC(O)/C=C/CC(O)CC(O)/C=C/CC(O)CC(O)CCCNC(=N)N)C(=O)O (stereo not given) [CLETHRAMYCIN] | mg/L | 8
C\C(=C/C=C/C=C/CC/C=C/C(C)C(O)C(C)C(O)/C=C/C=C/C=C/C=C/C=C/C=C/CC(OS(=O)(=O)O)C(C)C(=O)CC(O)CC(O)/C=C/CC(O)CC(O)CC(O)/C=C/CC(O)CC(O)/C=C/CC(O)CC(O)CCCN)C(=O)O (stereo not given) [MEDIOMYCIN A] | mg/L | 8
C[C@@H]1[C@H](O)[C@@H](C)/C=C/C=C/C=C/C=C/C=C/C=C/C=C/[C@H](O[C@@H]2O[C@H](C)[C@@H](O)[C@H](N)[C@@H]2O)C[C@@H]2O[C@](O)(C[C@@H](O)C[C@@H](O)[C@H](O)CC[C@@H](O)C[C@@H](O)CC(=O)O[C@H]1C)C[C@H](O)[C@H]2C(=O)O [AMPHOTERICIN B] | mg/L | 0.5

---

test system: Pichia kudriavzevii; experiment: Antifungal activity against Candida Krussii GC 3067; format: functional

compound | measured target | MIC
C\C(=C/C=C/C=C/CC/C=C/C(C)C(O)C(C)C(O)/C=C/C=C/C=C/C=C/C=C/C=C/CC(OS(=O)(=O)O)C(C)C(=O)CC(O)CC(O)/C=C/CC(O)CC(O)CC(O)/C=C/CC(O)CC(O)/C=C/CC(O)CC(O)CCCNC(=N)N)C(=O)O (configuration not stated) | Pichia kudriavzevii | 2 µg/mL
COC(=O)/C(C)=C/C=C/C=C/CC/C=C/C(C)C(O)C(C)C(O)/C=C/C=C/C=C/C=C/C=C/C=C/CC(OS(=O)(=O)O)C(C)C(=O)CC(O)CC(O)/C=C/CC(O)CC(O)CC(O)/C=C/CC(O)CC(O)/C=C/CC(O)CC(O)CCCN (configuration not stated) | Pichia kudriavzevii | 8 µg/mL

---

tested on: Candida albicans; experiment: Antifungal activity against Candida albicans GC 3064; type: functional
Listing of recorded log10(MIC) by entry.
endpoint: log10(MIC) (log10 of the value in µg/mL)

compound | log10(MIC)
C\C(=C/C=C/C=C/CC/C=C/C(C)C(O)C(C)C(O)/C=C/C=C/C=C/C=C/C=C/C=C/CC(OS(=O)(=O)O)C(C)C(=O)CC(O)CC(O)/C=C/CC(O)CC(O)CC(O)/C=C/CC(O)CC(O)/C=C/CC(O)CC(O)CCCN)C(=O)O (stereo not given) | 0.30
C[C@@H]1[C@H](O)[C@@H](C)/C=C/C=C/C=C/C=C/C=C/C=C/C=C/[C@H](O[C@@H]2O[C@H](C)[C@@H](O)[C@H](N)[C@@H]2O)C[C@@H]2O[C@](O)(C[C@@H](O)C[C@@H](O)[C@H](O)CC[C@@H](O)C[C@@H](O)CC(=O)O[C@H]1C)C[C@H](O)[C@H]2C(=O)O | -0.30
C\C(=C/C=C/C=C/CC/C=C/C(C)C(O)C(C)C(O)/C=C/C=C/C=C/C=C/C=C/C=C/CC(O)C(C)C(=O)CC(O)CC(O)/C=C/CC(O)CC(O)CC(O)/C=C/CC(O)CC(O)/C=C/CC(O)CC(O)CCCN)C(=O)O (stereo not given) | 0.00
C\C(=C/C=C/C=C/CC/C=C/C(C)C(O)C(C)C(O)/C=C/C=C/C=C/C=C/C=C/C=C/CC(OS(=O)(=O)O)C(C)C(=O)CC(O)CC(O)/C=C/CC(O)CC(O)CC(O)/C=C/CC(O)CC(O)/C=C/CC(O)CC(O)CCCNC(=N)N)C(=O)O (stereo not given) | 0.60
COC(=O)/C(C)=C/C=C/C=C/CC/C=C/C(C)C(O)C(C)C(O)/C=C/C=C/C=C/C=C/C=C/C=C/CC(OS(=O)(=O)O)C(C)C(=O)CC(O)CC(O)/C=C/CC(O)CC(O)CC(O)/C=C/CC(O)CC(O)/C=C/CC(O)CC(O)CCCN (stereo not given) | 1.20

---

Listing of recorded MIC by entry.
test system: Candida albicans; assay: Antifungal activity against Candida albicans GC 3066; type: functional

compound | measured target | u | MIC
C\C(=C/C=C/C=C/CC/C=C/C(C)C(O)C(C)C(O)/C=C/C=C/C=C/C=C/C=C/C=C/CC(OS(=O)(=O)O)C(C)C(=O)CC(O)CC(O)/C=C/CC(O)CC(O)CC(O)/C=C/CC(O)CC(O)/C=C/CC(O)CC(O)CCCNC(=N)N)C(=O)O (stereo not given) | Candida albicans | µg/mL | 4
C[C@@H]1[C@H](O)[C@@H](C)/C=C/C=C/C=C/C=C/C=C/C=C/C=C/[C@H](O[C@@H]2O[C@H](C)[C@@H](O)[C@H](N)[C@@H]2O)C[C@@H]2O[C@](O)(C[C@@H](O)C[C@@H](O)[C@H](O)CC[C@@H](O)C[C@@H](O)CC(=O)O[C@H]1C)C[C@H](O)[C@H]2C(=O)O | Candida albicans | µg/mL | 0.25
COC(=O)/C(C)=C/C=C/C=C/CC/C=C/C(C)C(O)C(C)C(O)/C=C/C=C/C=C/C=C/C=C/C=C/CC(OS(=O)(=O)O)C(C)C(=O)CC(O)CC(O)/C=C/CC(O)CC(O)CC(O)/C=C/CC(O)CC(O)/C=C/CC(O)CC(O)CCCN (stereo not given) | Candida albicans | µg/mL | 32
C\C(=C/C=C/C=C/CC/C=C/C(C)C(O)C(C)C(O)/C=C/C=C/C=C/C=C/C=C/C=C/CC(OS(=O)(=O)O)C(C)C(=O)CC(O)CC(O)/C=C/CC(O)CC(O)CC(O)/C=C/CC(O)CC(O)/C=C/CC(O)CC(O)CCCN)C(=O)O (stereo not given) | Candida albicans | µg/mL | 4
C\C(=C/C=C/C=C/CC/C=C/C(C)C(O)C(C)C(O)/C=C/C=C/C=C/C=C/C=C/C=C/CC(O)C(C)C(=O)CC(O)CC(O)/C=C/CC(O)CC(O)CC(O)/C=C/CC(O)CC(O)/C=C/CC(O)CC(O)CCCN)C(=O)O (stereo not given) | Candida albicans | µg/mL | 1

Attribution: ChEMBL document CHEMBL1141461
